Documented viability, T/C across a set of molecules
- Test system: KRAS-mutant PDC multicell tumor spheroid viability
- test-name: Anticancer human tumor 521955-158-R2-J5-PDC patient-derived pancreatic carcinoma cell line growth inhibition [KRAS2]
- experimental-context: second compound 0.1 µM; first compound 3.16 µM; active compounds read low
Response body: numeric value in %, unit text excluded.

Entry CC1(C)CCC(CN2CCN(c3ccc(C(=O)NS(=O)(=O)c4ccc(NCC5CCOCC5)c([N+](=O)[O-])c4)c(Oc4cnc5[nH]ccc5c4)c3)CC2)=C(c2ccc(Cl)cc2)C1 + C=CC(=O)N1CCN(c2nc(OCC3CCCN3C)nc3c2CCN(c2cccc4cccc(C)c24)C3)CC1CC#N , viability, T/C reported as 72.9

Entry COc1cc2nccc(Oc3ccc(NC(=O)C4(C(=O)Nc5ccc(F)cc5)CC4)cc3)c2cc1OC + CC1OCC2(CCN(c3cnc(Sc4ccnc(N)c4Cl)c(N)n3)CC2)C1N , viability, T/C reported as 64.1

Entry CCNC(=O)CC1N=C(c2ccc(Cl)cc2)c2cc(OC)ccc2-n2c(C)nnc21 (stereo not drawn) + COc1cc2nc(C)nc(NC(C)c3cc(N)cc(C(F)(F)F)c3)c2cc1OC1CCOC1 , viability, T/C reported as 32.4

====

- Tested on: KRAS-mutant PDC multicell tumor spheroid viability
- test-name: Anticancer human tumor 521955-158-R2-J5-PDC cell line growth inhibition [KRAS2];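 further: viability read after seven days of drug exposure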
- experimental-context: second compound 0.316 µM; first compound 3.16 µM; active compounds read low
quantity-name: viability, T/C (%)
Response body: numeric value in %, unit text excluded.

Examples from the recorded data:
compound	target-system	quantity-name	reported
CC1OCC2(CCN(c3cnc(Sc4ccnc(N)c4Cl)c(N)n3)CC2)C1N (centres undefined) + CNCc1ccccc1-c1csc(C(C)Nc2nc(C)nc3cc(OC)c(OC)cc23)c1	KRAS-mutant PDC multicell tumor spheroid viability	viability, T/C	75.4
CC(=O)OC12COC1CC(O)C1(C)C(=O)C(O)C3=C(C)C(OC(=O)C(O)C(NC(=O)OC(C)(C)C)c4ccccc4)CC(O)(C(OC(=O)c4ccccc4)C21)C3(C)C (centres undefined) + C=CC(=O)N1CCN(c2nc(=O)n(-c3c(C)ccnc3C(C)C)c3nc(-c4c(O)cccc4F)c(F)cc23)C(C)C1	KRAS-mutant PDC multicell tumor spheroid viability	viability, T/C	20
COC(=O)c1ccc2c(C(=Nc3ccc(N(C)C(=O)CN4CCN(C)CC4)cc3)c3ccccc3)c(O)[nH]c2c1 + C=CC(=O)N1CCN(c2nc(=O)n(-c3c(C)ccnc3C(C)C)c3nc(-c4c(O)cccc4F)c(F)cc23)C(C)C1	KRAS-mutant PDC multicell tumor spheroid viability	viability, T/C	10.3

Now for another entry.
Entry CC(=O)OC12COC1CC(O)C1(C)C(=O)C(O)C3=C(C)C(OC(=O)C(O)C(NC(=O)OC(C)(C)C)c4ccccc4)CC(O)(C(OC(=O)c4ccccc4)C21)C3(C)C (centres undefined) + COc1cc2nc(C)nc(NC(C)c3cc(N)cc(C(F)(F)F)c3)c2cc1OC1CCOC1 , viability, T/C reported as 20.2

====

- Test system: KRAS-mutant PDC multicell tumor spheroid viability
- test-name: Anticancer human tumor 521955-158-R2-J5-PDC cell line growth inhibition [KRAS2];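 further: viability read after seven days of drug exposure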
- experimental-context: second compound 1 µM; first compound 0.00316 µM; active compounds read low
quantity-name: viability, T/C (%)
Response body: numeric value in %, unit text excluded.

Examples from the recorded data:
compound	quantity-name	reported
CC(=O)Nc1cccc(-n2c(=O)n(C3CC3)c(=O)c3c(Nc4ccc(I)cc4F)n(C)c(=O)c(C)c32)c1 + COc1cc2nc(C)nc(NC(C)c3cc(N)cc(C(F)(F)F)c3)c2cc1OC1CCOC1	viability, T/C	19.9
Cn1ncnc1[C@H]1c2n[nH]c(=O)c3cc(F)cc(c23)N[C@@H]1c1ccc(F)cc1 + COc1cc2nc(C)nc(NC(C)c3cc(N)cc(C(F)(F)F)c3)c2cc1OC1CCOC1	viability, T/C	84
CC(C)n1nc(-c2ccc3oc(N)nc3c2)c2c(N)ncnc21 + C=CC(=O)N1CCN(c2nc(OCC3CCCN3C)nc3c2CCN(c2cccc4cccc(C)c24)C3)CC1CC#N	viability, T/C	49.1
CCN1CCN(Cc2ccc(Nc3ncc(F)c(-c4cc(F)c5nc(C)n(C(C)C)c5c4)n3)nc2)CC1 + CNCc1ccccc1-c1csc(C(C)Nc2nc(C)nc3cc(OC)c(OC)cc23)c1	viability, T/C	116
CC(=O)Nc1cccc(-n2c(=O)n(C3CC3)c(=O)c3c(Nc4ccc(I)cc4F)n(C)c(=O)c(C)c32)c1 + C=CC(=O)N1CCN(c2nc(OCC3CCCN3C)nc3c2CCN(c2cccc4cccc(C)c24)C3)CC1CC#N	viability, T/C	24.3
CC(=O)Nc1cccc(-n2c(=O)n(C3CC3)c(=O)c3c(Nc4ccc(I)cc4F)n(C)c(=O)c(C)c32)c1 + C=CC(=O)N1CCN(c2nc(=O)n(-c3c(C)ccnc3C(C)C)c3nc(-c4c(O)cccc4F)c(F)cc23)C(C)C1	viability, T/C	36.6

Item CN(C)C/C=C/C(=O)Nc1cc2c(Nc3ccc(F)c(Cl)c3)ncnc2cc1O[C@H]1CCOC1 + CNCc1ccccc1-c1csc(C(C)Nc2nc(C)nc3cc(OC)c(OC)cc23)c1 was tested on KRAS-mutant PDC multicell tumor spheroid viability; the reported viability, T/C is 100

Item Cn1ncnc1[C@H]1c2n[nH]c(=O)c3cc(F)cc(c23)N[C@@H]1c1ccc(F)cc1 + CNCc1ccccc1-c1csc(C(C)Nc2nc(C)nc3cc(OC)c(OC)cc23)c1 was tested on KRAS-mutant PDC multicell tumor spheroid viability; the reported viability, T/C is 112

====

- System: KRAS-mutant PDC multicell tumor spheroid viability
- test-name: Anticancer human tumor 521955-158-R2-J5-PDC cell line growth inhibition [KRAS2];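 further: viability read after seven days of drug exposure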
- experimental-context: second compound 1 µM; first compound 0.316 µM; active compounds read low
Documented viability, T/C across a set of compounds

Examples from the recorded data:
compound	target-system	viability, T/C
O=C(c1cc(Cc2n[nH]c(=O)c3ccccc23)ccc1F)N1CCN(C(=O)C2CC2)CC1 + C=CC(=O)N1CCN(c2nc(=O)n(-c3c(C)ccnc3C(C)C)c3nc(-c4c(O)cccc4F)c(F)cc23)C(C)C1	KRAS-mutant PDC multicell tumor spheroid viability	122%
CCN1CCN(Cc2ccc(Nc3ncc(F)c(-c4cc(F)c5nc(C)n(C(C)C)c5c4)n3)nc2)CC1 + CNCc1ccccc1-c1csc(C(C)Nc2nc(C)nc3cc(OC)c(OC)cc23)c1	KRAS-mutant PDC multicell tumor spheroid viability	119%

Entry COC(=O)c1ccc2c(C(=Nc3ccc(N(C)C(=O)CN4CCN(C)CC4)cc3)c3ccccc3)c(O)[nH]c2c1 + C=CC(=O)N1CCN(c2nc(=O)n(-c3c(C)ccnc3C(C)C)c3nc(-c4c(O)cccc4F)c(F)cc23)C(C)C1 , viability, T/C reported as 77%

====

- Test system: KRAS-mutant PDC multicell tumor spheroid viability
- test-name: Anticancer human tumor 521955-158-R2-J5-PDC cell line growth inhibition [KRAS2];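 further: viability read after seven days of drug exposure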
- experimental-context: second compound 1 µM; first compound 0.0316 µM; active compounds read low
Documented viability, T/C across a set of molecules
Response body: numeric value in %, unit text excluded.

Examples from the recorded data:
molecule	viability, T/C [%]
COc1cc2nccc(Oc3ccc(NC(=O)C4(C(=O)Nc5ccc(F)cc5)CC4)cc3)c2cc1OC + C=CC(=O)N1CCN(c2nc(=O)n(-c3c(C)ccnc3C(C)C)c3nc(-c4c(O)cccc4F)c(F)cc23)C(C)C1	109
Cn1ncnc1[C@H]1c2n[nH]c(=O)c3cc(F)cc(c23)N[C@@H]1c1ccc(F)cc1 + C=CC(=O)N1CCN(c2nc(=O)n(-c3c(C)ccnc3C(C)C)c3nc(-c4c(O)cccc4F)c(F)cc23)C(C)C1	83.3
CCN1CCN(Cc2ccc(Nc3ncc(F)c(-c4cc(F)c5nc(C)n(C(C)C)c5c4)n3)nc2)CC1 + CNCc1ccccc1-c1csc(C(C)Nc2nc(C)nc3cc(OC)c(OC)cc23)c1	117
CC(C)n1nc(-c2ccc3oc(N)nc3c2)c2c(N)ncnc21 + C=CC(=O)N1CCN(c2nc(OCC3CCCN3C)nc3c2CCN(c2cccc4cccc(C)c24)C3)CC1CC#N	23.3
CC(C)n1nc(-c2ccc3oc(N)nc3c2)c2c(N)ncnc21 + COc1cc2nc(C)nc(NC(C)c3cc(N)cc(C(F)(F)F)c3)c2cc1OC1CCOC1	29.6
CC1(C)CCC(CN2CCN(c3ccc(C(=O)NS(=O)(=O)c4ccc(NCC5CCOCC5)c([N+](=O)[O-])c4)c(Oc4cnc5[nH]ccc5c4)c3)CC2)=C(c2ccc(Cl)cc2)C1 + CC1OCC2(CCN(c3cnc(Sc4ccnc(N)c4Cl)c(N)n3)CC2)C1N	53.5
COc1cc(Nc2ncc3c(n2)-c2ccc(Cl)cc2C(c2c(F)cccc2OC)=NC3)ccc1C(=O)O + C=CC(=O)N1CCN(c2nc(=O)n(-c3c(C)ccnc3C(C)C)c3nc(-c4c(O)cccc4F)c(F)cc23)C(C)C1	48.1
CC(=O)Nc1cccc(-n2c(=O)n(C3CC3)c(=O)c3c(Nc4ccc(I)cc4F)n(C)c(=O)c(C)c32)c1 + COc1cc2nc(C)nc(NC(C)c3cc(N)cc(C(F)(F)F)c3)c2cc1OC1CCOC1	7.44

Entry COC(=O)c1ccc2c(C(=Nc3ccc(N(C)C(=O)CN4CCN(C)CC4)cc3)c3ccccc3)c(O)[nH]c2c1 + C=CC(=O)N1CCN(c2nc(OCC3CCCN3C)nc3c2CCN(c2cccc4cccc(C)c24)C3)CC1CC#N , viability, T/C reported as 49.4

Entry CCNC(=O)CC1N=C(c2ccc(Cl)cc2)c2cc(OC)ccc2-n2c(C)nnc21 (stereo not given) + CC1OCC2(CCN(c3cnc(Sc4ccnc(N)c4Cl)c(N)n3)CC2)C1N , viability, T/C reported as 66
